# measured.target: AHR (Homo sapiens, UniProt P35869)
# Sequence (P35869 11-848): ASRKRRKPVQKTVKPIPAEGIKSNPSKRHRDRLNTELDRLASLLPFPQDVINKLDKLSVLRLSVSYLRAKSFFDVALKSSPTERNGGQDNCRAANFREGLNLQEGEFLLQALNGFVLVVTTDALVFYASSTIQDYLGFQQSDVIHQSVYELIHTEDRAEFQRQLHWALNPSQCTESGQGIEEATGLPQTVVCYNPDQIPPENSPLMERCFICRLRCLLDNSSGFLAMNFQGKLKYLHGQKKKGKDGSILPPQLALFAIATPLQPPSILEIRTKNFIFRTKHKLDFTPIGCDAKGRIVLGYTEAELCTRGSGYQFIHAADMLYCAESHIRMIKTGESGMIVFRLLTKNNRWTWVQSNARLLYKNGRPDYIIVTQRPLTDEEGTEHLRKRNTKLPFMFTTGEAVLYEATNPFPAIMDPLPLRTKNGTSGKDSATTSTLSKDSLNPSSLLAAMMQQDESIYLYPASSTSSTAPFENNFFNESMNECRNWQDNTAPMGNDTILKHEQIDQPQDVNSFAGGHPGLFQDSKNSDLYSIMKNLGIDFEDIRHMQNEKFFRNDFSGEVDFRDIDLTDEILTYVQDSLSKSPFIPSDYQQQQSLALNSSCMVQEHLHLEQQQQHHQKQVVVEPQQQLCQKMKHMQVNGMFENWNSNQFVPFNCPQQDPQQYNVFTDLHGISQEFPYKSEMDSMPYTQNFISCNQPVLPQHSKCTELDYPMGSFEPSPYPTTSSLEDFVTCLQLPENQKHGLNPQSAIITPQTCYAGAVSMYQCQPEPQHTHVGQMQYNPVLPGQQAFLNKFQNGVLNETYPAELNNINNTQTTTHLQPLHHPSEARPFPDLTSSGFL
# assay.protocol: In vitro assay 1: antagonism in human cell line (transactivation assay, U87 cells prestimulated with kynurenic acid, DRE firefly luciferase reporter)
# Assay type: cell-based
# Parameters: host or cells: U87 glioblastoma cells, stably transfected with DRE firefly luciferase and renilla reporter constructs
# condition.context: 150 uM kynurenic acid, 20 hours, read-out: Assay 1: AHR-luc Hum Antagonism IC50
parameter: IC50 (nM)

compound=O=C(N[C@H]1CCC[C@@H]1O)c1cc(-c2ccc(Cl)cc2)nn(-c2cccnc2)c1=O measurement=6.54

(I) C[C@@H](CO)NC(=O)c1cc(-c2ccc(Cl)cc2F)nn(-c2cccnc2)c1=O
(II) O=C(N[C@H]1CCCC[C@H]1O)c1cc(-c2ccc(OC(F)(F)F)cc2)nn(-c2cccnc2)c1=O
(III) CC(C)(O)C(NC(=O)c1cc(-c2ccc(Cl)cc2)nn(-c2cncnc2)c1=O)C(F)(F)F (stereo not shown) [Example 185]
Task item: Hi! Can you put these in order of IC50, lowest number first? Form entry: ranked labels (order as requested).
Reply: II, III, I
(II: 4.6 nM, III: 37.1 nM, I: 134 nM)
